Recorded zone of inhibition at 40 µg/disc, one value per entry.
Test system: Bacillus cereus
protocol_details: Antimicrobial activity against Bacillus cereus DSM 4384 assessed as growth inhibition at 40 ug per disc after 24 to 48 hrs (reference value: 0 millimeter)
Assay type: functional
test_parameters: read-out: DIZ
The reply should read as a number followed by its unit.

INSERT INTO assay_data (compound, quantity_name, observed) VALUES
  ('O=C1Cc2ccc(O)c(c2)-c2cc(ccc2O)C[C@@H](O)[C@@H](O)[C@@H](O)[C@H]1O (mixture of isomers)', 'zone of inhibition at 40 µg/disc', '11.3 mm'),
  ('C[C@@H]1O[C@@H](Oc2c(-c3cc(O)c(O)c(O)c3)oc3cc(O)cc(O)c3c2=O)[C@H](O)[C@H](O)[C@H]1O', 'zone of inhibition at 40 µg/disc', '0 mm');

Next compound, zone of inhibition at 40 µg/disc to be filled in.
Lookup result for O=C1/C=C/CCc2ccc(O[C@@H]3O[C@H](CO)[C@@H](O)[C@H](O)[C@H]3O)c(c2)-c2cc(ccc2O[C@H]2OC[C@H](O)[C@H](O)[C@H]2O)CC1 (mixture of isomers) ; measured zone of inhibition at 40 µg/disc: 0 mm
